IC50 values for Hepatocyte growth factor receptor (Homo sapiens, UniProt P08581) compiled from several publications are listed below.

{"columns": ["SMI", "IC50"],
 "data": [
  ["Nc1nccc(-c2cc(-c3ccc(NC(=O)c4ccc(CO)n(-c5ccc(F)cc5)c4=O)cc3F)ccc2O)n1", "1.71 µM"],
  ["Nc1ncnc(Oc2ccc(NC(=O)c3cnn(-c4ccccc4)c3C(F)(F)F)cc2F)c1Cl", "> 5 µM"],
  ["CC(C)n1c(=O)[nH]c2nccc(Oc3ccc(NC(=O)c4cnc(-c5ccccc5)s4)cc3F)c21", "> 5 µM"]
]}

Exercise: API: value(readout= IC50, system= Hepatocyte growth factor receptor (Homo sapiens, UniProt P08581), query= Nc1nccc(Oc2cc(F)c(NC(=O)c3cnn(-c4ncccc4F)c3C(F)(F)F)c(F)c2)c1Cl )
Solution: > 5 µM

Exercise: Report IC50 for Nc1nccc(Oc2ccc(NC(=O)c3cnn(-c4ncccc4C(F)(F)F)c3C(F)(F)F)cc2F)c1Cl tested on Hepatocyte growth factor receptor (Homo sapiens, UniProt P08581).
Solution: 0.5 to 5 µM

----------
pIC50: −log10 of the molar value.
// note: pIC50 values for UniProt:P08581 were reported in different studies

// worked examples, pIC50 included
{"columns": ["MOLECULE", "VALUE KIND", "RESULT"],
 "data": [
  ["CCc1cccnc1-n1ncc(C(=O)Nc2ccc(Oc3ncnc(N)c3Cl)c(F)c2)c1C(F)(F)F", "pIC50", "< 5.30"],
  ["Nc1nccc(Oc2c(F)cc(NC(=O)c3cnn(-c4cccnn4)c3C(F)(F)F)cc2F)c1Cl", "pIC50", "5.30 to 6.30"],
  ["Nc1ncnc(Oc2ccc(NC(=O)c3cnn(-c4ccccn4)c3C(F)(F)F)cc2F)c1Cl", "pIC50", "< 5.30"],
  ["Nc1ncnc(Oc2ccc(NC(=O)c3cnn(C4CCCOC4)c3C(F)(F)F)cc2F)c1Cl (centres unmarked)", "pIC50", "< 5.30"]
]}

Exercise: // returns reported pIC50 for input Nc1nccc(Oc2ccc(NC(=O)c3cnn(-c4ncccc4F)c3C(F)(F)F)cc2F)c1NC1CCCCC1
Solution: < 5.30
